ASSAY SYSTEM: T1, recombinant human Tau monomer, 2N4R isoform (amino acids 2-441) (human, UniProt P10636-8 2-441)
T1 construct: range 2-441; N-terminal His-tag removed with TEV protease; also called monomeric Tau
T1 sequence (P10636 other isoform, or with tags, fused parts or gaps limits assumed): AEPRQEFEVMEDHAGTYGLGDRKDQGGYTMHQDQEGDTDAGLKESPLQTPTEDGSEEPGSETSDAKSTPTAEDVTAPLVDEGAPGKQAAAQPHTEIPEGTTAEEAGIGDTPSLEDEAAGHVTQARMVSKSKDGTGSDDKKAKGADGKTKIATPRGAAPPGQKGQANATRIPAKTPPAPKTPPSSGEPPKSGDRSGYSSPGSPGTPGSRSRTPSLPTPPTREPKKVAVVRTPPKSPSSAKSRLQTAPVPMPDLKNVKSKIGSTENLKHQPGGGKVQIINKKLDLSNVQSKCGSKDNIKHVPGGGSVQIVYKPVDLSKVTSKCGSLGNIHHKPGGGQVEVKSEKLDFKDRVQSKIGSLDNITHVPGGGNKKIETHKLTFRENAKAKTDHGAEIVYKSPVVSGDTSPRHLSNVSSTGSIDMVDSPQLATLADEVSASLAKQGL
TEST DETAILS: SPR screen, hIgG captured, Tau monomer analyte
Kd for assorted binders
ENDPOINT LABEL: Kd (nM)

BINDER	ASSAY VALUE
hu125B11 HC3 + hu113F5-F7 LC1 (antibody, V domains shown) VH: EVQLVESGGGLVQPGGSLRLSCAASRFIFSNYWMNWVRQAPGKGLEWVAQIRLKSDNYATHYAESVKGRFTISRDDSKNTLYLQMNSLRAEDTAVYYCTGGTTYWGQGTLVTVSS VL: DIQMTQSPSSLSASVGDRVTITCKASQNVGTAVAWYQQKPGKSPKLLIYSASRRFSGVPSRFSGSGSGTDFTLTISSLQPEDFATYFCQQFSTYPYTFGQGTKVEIK	54
hu125B11 HC2 + 125B11 LC3 (antibody, V domains shown) VH: EVQLVESGGGLVQPGGSLRLSCAASRFIFSNYWMNWVRQAPGKGLEWVAQIRLKSDNYATHYAESVKGRFTISRDNSKNTVYLQMNSLRAEDTAVYYCTGGTTYWGQGTLVTVSS VL: DIQMTQSPSSLSASVGDRVTITCKASQNVGTAVAWYQQKPGKSPKLLIYSASIRYTGVPSRFSGSGSGTDFTLTISSLQPEDFATYYCQQFRTYPYTFGQGTKVEIK	23
hu125B11 HC3 + 125B11 LC4 (antibody, V domains shown) VH: EVQLVESGGGLVQPGGSLRLSCAASRFIFSNYWMNWVRQAPGKGLEWVAQIRLKSDNYATHYAESVKGRFTISRDDSKNTLYLQMNSLRAEDTAVYYCTGGTTYWGQGTLVTVSS VL: DIQMTQSPSSLSASVGDRVTITCKASQNVGTAVAWYQQKPGKAPKLLIYSASIRYTGVPSRFSGSGSGTDFTLTISSLQPEDFATYYCQQFRTYPYTFGQGTKVEIK	20
